IC50 values for the compounds below.
- targetUnderTest: KRAS Q61H (Homo sapiens (Human), UniProt P01116+P62937, Q61H)
- Sequence (P01116-2 other isoform, or with tags, fused parts or gaps Q61H): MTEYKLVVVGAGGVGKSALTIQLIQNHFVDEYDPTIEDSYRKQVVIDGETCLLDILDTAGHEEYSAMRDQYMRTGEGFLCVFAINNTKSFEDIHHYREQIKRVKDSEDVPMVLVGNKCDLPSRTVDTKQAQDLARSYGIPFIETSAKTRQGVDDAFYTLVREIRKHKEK
- Sequence (P62937 whole entry): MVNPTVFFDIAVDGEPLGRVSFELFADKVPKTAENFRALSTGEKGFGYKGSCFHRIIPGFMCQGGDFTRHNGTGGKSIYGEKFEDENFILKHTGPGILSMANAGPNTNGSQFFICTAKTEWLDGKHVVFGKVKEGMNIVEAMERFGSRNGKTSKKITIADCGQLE
- assayProcedure: Ras-Raf (BRAF RBD) disruption / FRET / MOA assay, KRAS Q61H
- Type: biochemical
- experimentalConditions: Ras-Raf disruption/FRET/MOA assay; class symbols; read-out: KRAS Q61H FRET data IC50

>  <compound>
C=CC(=O)N1CC[C@H](C(=O)N(C)C(C(=O)N[C@H]2C[C@H]3CN(CCO3)c3ccc4c(c3)c(c(-c3cccnc3[C@H](C)OC)n4CC)CC(C)(C)COC(=O)[C@@H]3CCCN(N3)C2=O)C(C)C)C1 (mixture of isomers) [Example A507]

>  <IC50>
> 10000 nM

$$$$
>  <compound>
C=CC(=O)N1CC[C@H](C(=O)N(C)[C@H](C(=O)N[C@H]2Cc3cc(O)cc(c3)-c3ccc4c(c3)c(c(-c3cc(CN(C)C)cnc3[C@H](C)OC)n4CC)CC(C)(C)COC(=O)[C@@H]3CCCN(N3)C2=O)C(C)C)C1 (atropisomer, axis not shown) [Example A537]

>  <IC50>
10 to 100 nM

$$$$
